The origin of these recorded values is patent US20220290200A1.

Assay: Caco-2 bi-directional permeability assay
Assay type: in vitro ADME, human
Details: human, Caco-2; ratio of B−A and A−B permeabilities

COMPOUND | efflux ratio at 120 min, 10 μM
C=C(C)[C@@H]1CCC(C)=C[C@H]1c1c(O)cc(CCCCC)cc1O [CBD, cannabidiol, reference compound] | 2.37

---

Assay: Thermodynamic aqueous solubility assay in PBS
Details: phosphate buffered saline, pH 7.4, aqueous buffer, thermodynamic from solid
MEASURED ATTRIBUTE: solubility

COMPOUND | REPORTED MEASUREMENT
C=C(C)[C@@H]1CCC(C)=C[C@H]1c1c(O)cc(CCCCC)cc1O [CBD, cannabidiol, reference compound] | ≤ 0.5 µM
